# test_summary: Primary qHTS to identify inhibitors of SARS-CoV-2 cell entry (AID 1645846)
# test_context: SARS-CoV-2 pseudovirus cell entry assay, luminescence; at 57.1 µM (top of the series) unless noted
Records with an inconclusive call do not appear.
Catalogue of compounds with associated activity change, negative = inhibition

# annotated cases, reported activity change, negative = inhibition shown
Form field: reported activity change, negative = inhibition of CO[C@H]1C[C@@H]2CC[C@@H](C)[C@@](O)(O2)C(=O)C(=O)N2CCCC[C@H]2C(=O)O[C@H]([C@H](C)C[C@@H]2CC[C@@H](OC(=O)C(C)(CO)CO)[C@H](OC)C2)CC(=O)[C@H](C)/C=C(\C)[C@@H](O)[C@@H](OC)C(=O)[C@H](C)C[C@H](C)/C=C/C=C/C=C/1C
-29.8% [at 27.1 µM]

Form field: reported activity change, negative = inhibition of Cc1cc(-c2cnn3c(NCC4CC(C)(O)C4)cc(Oc4cccnc4)nc23)ccc1C(=O)NC1CC1 (stereo unspecified)
-11.3% [at 5.25 µM]

Form field: reported activity change, negative = inhibition of N[C@H](Cc1ccccc1)C(=O)O
-27.4% [at 27.1 µM]

---
Form field: reported activity change, negative = inhibition of CCN(CC)CCOc1ccc2nc(N(C)C)sc2c1
-8.36% [at 114 µM]

Form field: reported activity change, negative = inhibition of CC1(C)CCC2(CC1)N[C@@H](C(=O)N[C@@H]1CC[C@@H](C(N)=O)OC1)[C@H](c1ccnc(Cl)c1F)[C@]21C(=O)Nc2cc(Cl)ccc21
-20.9% [at 37.9 µM]

Form field: reported activity change, negative = inhibition of CN[C@@H]1[C@H](O)[C@H](O[C@@H]2[C@H](O)[C@@H](O[C@H]3O[C@H]([C@@H](C)NC)CC[C@H]3N)[C@@H](N)C[C@H]2N)OC[C@]1(C)O
-8.26% [at 11.3 µM]

Data provenance: PubChem BioAssay (NCATS)
